Tested on: human Factor 7 mRNA
Test: Inhibition of human Factor 7 mRNA by 2-10-2 MOE shortmers in HepB3 cells, electroporation, 1,000 nM
Assay type: cell-based
Details: electroporation, 1,000 nM oligonucleotide, approximately 24 hours, relative to untreated control cells
In the oligonucleotide strings, read from the 5' end, every base follows the letter of its sugar. An asterisk marks phosphorothioate; unmarked linkages are phosphodiester. Other units and linkages are bracketed, terminal groups are in braces. A string of capitals states the bases alone. e = 2'-O-(2-methoxyethyl) (MOE); [5mC] = 5-methylcytosine; d = 2'-deoxy (DNA)
If the reported % inhibition of human Factor 7 mRNA equals or exceeds 30%, assign y. If not, assign n.

substance	category
435675 (antisense eT*eG*dT*d[5mC]*dG*dA*dA*dA*d[5mC]*dA*dG*dT*eG*eG) [compound 435675]	n
435806 (antisense eT*eG*dA*d[5mC]*d[5mC]*d[5mC]*d[5mC]*dA*d[5mC]*dA*dG*dG*eG*eA) [compound 435806]	n
407939 (antisense eT*eG*e[5mC]*eA*eG*d[5mC]*d[5mC]*d[5mC]*dG*dG*d[5mC]*dA*d[5mC]*d[5mC]*d[5mC]*eA*eG*e[5mC]*eG*eA) [compound 407939]	y
435771 (antisense eG*eT*d[5mC]*dA*dT*dA*dA*dG*dG*d[5mC]*d[5mC]*dA*eT*eG) [compound 435771]	n
435492 (antisense eA*e[5mC]*d[5mC]*d[5mC]*dT*dG*dG*dT*dG*dT*dA*d[5mC]*eA*e[5mC]) [compound 435492]	y
435684 (antisense eA*eG*d[5mC]*dA*dG*d[5mC]*dG*d[5mC]*dG*dA*dT*dG*eT*e[5mC]) [compound 435684]	y
435799 (antisense e[5mC]*eT*dG*dG*dT*d[5mC]*d[5mC]*d[5mC]*d[5mC]*dA*dT*d[5mC]*eT*eG) [compound 435799]	y
435494 (antisense eA*eG*dA*d[5mC]*d[5mC]*d[5mC]*dT*dG*dG*dT*dG*dT*eA*e[5mC]) [compound 435494]	y
435751 (antisense e[5mC]*eT*dT*dG*d[5mC]*d[5mC]*dA*dG*dG*dT*d[5mC]*d[5mC]*eT*e[5mC]) [compound 435751]	n
435769 (antisense eT*eT*d[5mC]*dT*dT*dT*dG*dA*dA*dA*dA*dA*eT*eA) [compound 435769]	n
435756 (antisense eT*eG*d[5mC]*d[5mC]*d[5mC]*dA*dG*dG*dA*d[5mC]*dG*dG*e[5mC]*e[5mC]) [compound 435756]	n
435717 (antisense eT*eG*dA*dG*d[5mC]*dT*dT*dT*dT*dG*d[5mC]*dA*eG*e[5mC]) [compound 435717]	n
435828 (antisense eG*eA*d[5mC]*d[5mC]*dT*dG*d[5mC]*d[5mC]*d[5mC]*dA*dT*dT*eT*eT) [compound 435828]	n
